- Tested On: HLA-A*1101 (human)
- Experimental Details: competitive inhibition of 125I-A3con binding to purified HLA
- Condition: remark: other sources report otherwise
pIC50: −log10 of the molar value.
Value Type: pIC50

SSFSTTINK [MAGE2.69.K9 …]
8.52
YVFPVIFSK [MAGE3.138.V2 …]
8.52
KTYQGSYGFK [p53.101.K10 …]
7.85
